Reference source: patent US20200270309A1

- System: human retinal capillary endothelial cells (HRCECs)
- measurement description: MTT proliferation inhibition on HRCECs
- Assay type: cell-based
- experimental context: 48 h, dose 0.2 μM, mean±SD
Peptide text beside a SMILES is read from it. * marks the point of attachment. X74 = O=C1C=CC(=O)N1c1cccc(CCCCCCCCCCC(=O)*)c1; X84 = O=C1C=CC(=O)N1c1ccccc1CCCCCCCCCCCCC(=O)*
endpoint: A570 nm-A630 nm

molecule	reported result
C[C@H](NC(=O)CNC(=O)[C@H](CCCNC(=N)N)NC(=O)CCCCCCCCCCc1cccc(N2C(=O)C=CC2=O)c1)C(=O)N[C@@H](CC(=O)O)C(=O)N[C@@H](CCCNC(=N)N)C(=O)N[C@@H](C)C(=O)NCC(=O)NCC(=O)NCC(=O)NCC(=O)N[C@@H](CCCNC(=N)N)C(=O)NCC(=O)N[C@@H](CC(=O)O)C(=O)O [X34] (X74-RGADRAGGGGRGD-OH)	0.5298
C[C@H](NC(=O)CNC(=O)[C@H](CCCNC(=N)N)NC(=O)CCCCCCCCCCCCc1ccccc1N1C(=O)C=CC1=O)C(=O)N[C@@H](CC(=O)O)C(=O)N[C@@H](CCCNC(=N)N)C(=O)N[C@@H](C)C(=O)NCC(=O)NCC(=O)NCC(=O)NCC(=O)N[C@@H](CCCNC(=N)N)C(=O)NCC(=O)N[C@@H](CC(=O)O)C(=O)O [X24] (X84-RGADRAGGGGRGD-OH)	0.6661
